Just for reference, patent US9764046B2 is where these values come from.

Assay: Excitation and fluorescence wavelengths by fluorescence spectrometer FL4500
Type: physicochemical
Settings: aqueous solution: 10 mg/mL DMSO solution diluted to 1/500 with purified water (Examples 1 to 94); in nm (unit assumed)
Observation type: λem (fluorescence wavelength)
The response must contain the number and no unit.

Answered examples (2):
| Compound | λem (fluorescence wavelength) |
| --- | --- |
| O=C(O)C1=NN(c2ccccc2)C(=O)/C1=C\c1ccc2c(c1)C1CCCC1N2c1ccc(Cc2ccccc2)cc1 (stereo not shown) | 586 |
| CCC(/C=C1\Oc2ccc(-c3ccccc3)cc2N1CC)=C\c1oc2ccc(-c3ccccc3)cc2[n+]1CC.[I-] | 564 |

Qu. Look at this compound and give its reported λem (fluorescence wavelength). O=C(O)C[n+]1c(/C=C/c2ccc3c(c2)C2CCCC2N3c2ccccc2)sc2ccccc21.[Br-] (stereo not shown)
Ans. 636

Qu. Look at this compound and give its reported λem (fluorescence wavelength). COc1ccc(N2c3ccc(/C=C4\Oc5ccc(I)cc5C4=O)cc3C3CCCC32)cc1 (stereo not shown)
Ans. 680

* * *

Assay: Excitation and fluorescence wavelengths by fluorescence spectrometer FL4500
Assay type: physicochemical
Settings: aqueous solution: 10 mg/mL DMSO solution diluted to 1/500 with purified water (Examples 1 to 94); in nm (unit assumed)
Listed molecules paired with reported λem (fluorescence wavelength)
The response must contain the number and no unit.

| Molecule | λem (fluorescence wavelength) |
| --- | --- |
| CCN(CC)c1ccc2cc(-c3nc4cc(Cl)ccc4o3)c(=O)oc2c1 | 476 |
| CC[n+]1c(C=C2SCC(=O)N2c2ccccc2)sc2ccccc21.[Br-] | 503 |
| CCN1C(=O)/C(=c2\s/c(=C/c3ccc4c(c3)C3CCCC3N4c3ccc(SC)cc3)c(=O)n2CC(=O)O)SC1=S (centres unmarked) | 699 |
| O=C(O)C[n+]1c(/C=C/c2ccc3c(c2)C2CCCC2N3Cc2ccccc2)sc2ccccc21.[Br-] (centres unmarked) | 611 |
| CCN(CC)c1ccc2cc3c(oc2c1)c(C#N)c(=N)n1c2ccccc2nc31 | 577 |

Qu. Look at this molecule and give its reported λem (fluorescence wavelength). CCN1C(=O)S/C(=c2/s/c(=C/c3ccc4c(c3)C3CCCC3N4c3ccccc3)c(=O)n2CC(=O)O)C1=O (centres unmarked)
Ans. 644

Qu. Look at this molecule and give its reported λem (fluorescence wavelength). CCN1/C(=C/C=C/c2sc3ccccc3[n+]2CC)Sc2ccccc21.[I-]
Ans. 575

Qu. Look at this molecule and give its reported λem (fluorescence wavelength). CCCCCN1/C(=C/C=C/c2oc3ccccc3[n+]2CCCCC)Oc2ccccc21.[I-]
Ans. 509

* * *

Tested on: intraocular tissue (retinal tissue incl. photoreceptor cell layer, vitreous body) of Zebrafish 7-day-old embryo
Experiment: Staining of intraocular tissue of Zebrafish fry by exposure to staining liquid, ocular tissue section observed by confocal microscope
Type: in vivo
Settings: Zebrafish 7 dpf fry, 1 μg/mL, 1 hour exposure, fixed ocular section

| Molecule | Staining ability |
| --- | --- |
| COc1ccc(Nc2ccc3c4c(cc(=O)n3C)-c3ccccc3C(=O)c24)cc1 [Compound 116] | ∘ |
| C[n+]1c(C=c2sc(=Cc3ccc4c(c3)C3CCCC3N4c3ccc(C=C(c4ccccc4)c4ccccc4)cc3)c(=O)n2CC(=O)O)sc2ccccc21.[Br-] (stereo not drawn) [Compound 101] | ∘ |
| CSc1cccc(N2c3ccc(/C=C4/SC(=S)N(CC(=O)O)C4=O)cc3C3CCCC32)c1 (stereo not drawn) [Compound 103] | ∘ |
